Each recorded value in this set is attributed to ChEMBL document CHEMBL1145678.

tested on: Mus musculus; assay: Effect on compound 48/80-induced histamine level in ddY mouse peritoneal cavity fluid assessed as histamine release at 25 mg/kg, ip administered 15 mins before compound 48/80 challenge measured after 10 mins by fluorometric assay relative to control; format: functional; conditions: route intraperitoneal
assay.readout: Activity (%)
Give a bare numeral; the unit % is implied.

molecule=COc1c2ccoc2c(OC[C@@H](OC(C)=O)C(C)(C)O)c2oc(=O)ccc12 endpoint_result=151
molecule=COc1c2ccoc2c(OCC=C(C)C)c2oc(=O)ccc12 endpoint_result=137.7
molecule=COc1c2ccoc2c(OC[C@@H](O)C(C)(C)O)c2oc(=O)ccc12 endpoint_result=57
molecule="CC(C)(O)[C@H](O)COc1c2ccoc2cc2oc(=O)ccc12 [OXYPEUCEDANIN HYDRATE]" endpoint_result=69.1
molecule=COc1c2ccoc2cc2oc(=O)ccc12 endpoint_result=55.4

Please look at the following molecule next.
Please give the measured Activity for this molecule: CC1(C)O[C@H]1COc1c2ccoc2cc2oc(=O)ccc12
136.1

###

test system: Mus musculus; experiment: Effect on compound 48/80-induced histamine level in ddY mouse peritoneal cavity fluid assessed as histamine release at 10 mg/kg, ip administered 15 mins before compound 48/80 challenge measured after 10 mins by fluorometric assay relative to control; format: functional; settings: route intraperitoneal
assay.readout: Activity (%)
Give a bare numeral; the unit % is implied.

Record excerpt, results attached:
compound=COc1c2ccoc2cc2oc(=O)ccc12 assay_readout=Activity endpoint_result=108.2
compound=COc1c2ccoc2c(OC[C@@H](OC(C)=O)C(C)(C)O)c2oc(=O)ccc12 assay_readout=Activity endpoint_result=93.2
compound=CC1(C)O[C@H]1COc1c2ccoc2cc2oc(=O)ccc12 assay_readout=Activity endpoint_result=142.6

Please give the measured Activity for this compound: COc1c2ccoc2c(OCC=C(C)C)c2oc(=O)ccc12
109.8

Please give the measured Activity for this compound: CC(C)(O)[C@H](O)COc1c2ccoc2cc2oc(=O)ccc12 [OXYPEUCEDANIN HYDRATE]
114.8

Please give the measured Activity for this compound: COc1c2ccoc2c(OC[C@@H](O)C(C)(C)O)c2oc(=O)ccc12
105.4
